Where do the numbers come from? From PubChem BioAssay (NCI).

Exercise: for every item that follows, state its recorded growth.
Tested on: SF-539 CNS
Assay: NCI-60 one-dose screen, 48 h (100 = growth as untreated, 0 = no growth, -100 = all killed)
Conditions: 10 µM unless noted
This is part of a sample that, as a whole, favours compounds with a hit. Of some 83,000 tested, about 20% had one in any assay.
Entry rule: numbers only, all in %.

Value lookup for growth; key = "Nc1nc(Nc2ccccc2SSc2ccccc2Nc2nc(N)nc(-c3cccc(Br)c3)n2)nc(-c2cccc(Br)c2)n1"
95.2

Value lookup for growth; key = "COc1ccc(NCc2cn(-c3ccc(C(=O)O)cc3)nc2-c2cc(C(F)(F)F)cc(C(F)(F)F)c2)cc1"
86.5

Value lookup for growth; key = "COc1cc(Nc2c(C#N)cnn3cc(-c4cnn(CC(C)(C)O)c4)cc23)ccc1Cl"
8.69

Value lookup for growth; key = "CCCCCc1ccc(S(=O)(=O)Nc2cccc(-c3csc(NC(=O)CNCCN(C)C)n3)c2)cc1"
91.1

###

Test system: 786-0 renal
Experiment: NCI-60 one-dose screen, 48 h
Conditions: 10 µM unless noted
About 83,000 compounds went through this panel and 20% of them were active in at least one assay; those are over-represented in the sample as a whole. The source made the active and inactive calls. Rule for the calls: active = growth percent below 10; inactive = the rest.
Pick one and only one: active, inactive

Kindly provide the recorded test outcome for the following compound: COc1cc2nc(Cl)nc(Nc3cccc(C4=Nc5c(N)nc(N)nc5NC(c5ccc6c(c5)OCO6)C4)c3)c2cc1OC (centres undefined)
inactive

Kindly provide the recorded test outcome for the following compound: "CCOC(=O)c1c(N)c(C#N)cn1-c1cc(OC)c(OC)c(OC)c1"
inactive

Kindly provide the recorded test outcome for the following compound: "CNC(=O)c1cc(Oc2ccc3nc(NC(=O)c4ccc(N5CCOCC5)c(C(F)(F)F)c4)sc3c2)ccn1"
inactive

Kindly provide the recorded test outcome for the following compound: "CS(=O)(=O)Nc1cc(-c2ccc3ncc(C#N)c(NCc4ccccc4)c3c2)cnc1Cl"
active

Kindly provide the recorded test outcome for the following compound: "COc1ccccc1C(=O)Nc1cccc2c1C(=O)C(=O)C=C2"
inactive

Kindly provide the recorded test outcome for the following compound: C=CCOc1cccc(/C=C2\SC(=S)N(C3CC(=O)N(c4ccc(Br)cc4)C3=O)C2=O)c1 (centres undefined)
inactive

Kindly provide the recorded test outcome for the following compound: "C=CC(=O)N1CC=C(c2cc3c(N[C@H](C)c4ccccc4)ncnc3[nH]2)CC1"
inactive

Kindly provide the recorded test outcome for the following compound: COc1ccc(C2c3sc4c(C)cccc4c3Oc3nc(CC(=O)Nc4ccccc4)[nH]c(=O)c32)cc1 (centres undefined)
inactive

Kindly provide the recorded test outcome for the following compound: "O=C(Nc1ccc2c(ccn2Cc2ccccn2)c1)c1ccnnc1"
inactive

Kindly provide the recorded test outcome for the following compound: "Cn1ccnc1C(=O)/C=C/c1ccc(CNC(=O)c2ccc(S(F)(F)(F)(F)F)cc2)cc1"
inactive

Kindly provide the recorded test outcome for the following compound: "COc1cc(-c2nn(C(C)(C)C)cc2-c2ccnc(NCCCNS(=O)(=O)c3ccccc3)n2)ccc1Cl"
inactive

Kindly provide the recorded test outcome for the following compound: "NS(=O)(=O)c1ccc(Nc2nc(SCc3ccccc3)nc3ccccc23)cc1"
inactive

Kindly provide the recorded test outcome for the following compound: "Cc1cc(-c2ccc(Cl)cc2)n(Cc2nnc(SCC(=O)Nc3ccc(S(N)(=O)=O)cc3)n2-c2ccc([N+](=O)[O-])cc2)n1"
inactive

Kindly provide the recorded test outcome for the following compound: "COc1cc(OC)c(/C=C/S(=O)(=O)Cc2ccc(OC)c(NC(=O)CCC(=O)NO)c2)c(OC)c1"
inactive

###

Tested on: HOP-62 NSCLC
Assay: NCI-60 one-dose screen, 48 h
Details: 10 µM unless noted
This is part of a sample that, as a whole, favours compounds with a hit. Of some 83,000 tested, about 20% had one in any assay. Calls of active or inactive are those of the source. The calls were made as follows: active = growth percent below 10; inactive = the rest.
Pick one and only one: active, inactive

Kindly provide the recorded test outcome for the following compound: "CC(C)(C)n1cc(-c2ccnc(NCCCNS(=O)(=O)c3cccc(F)c3)n2)c(-c2ccc(Cl)c(O)c2)n1"
inactive

Kindly provide the recorded test outcome for the following compound: "CCCCCc1ccc(S(=O)(=O)Nc2cc(-c3csc(NC(=O)CN4CCN(CCO)CC4)n3)ccc2OC)cc1"
inactive

Kindly provide the recorded test outcome for the following compound: "COc1ccc(/C=C/C(=O)c2cccc(NC(=O)CSc3nc4ccccc4c(=O)n3-c3ccccc3)c2)cc1OC"
inactive

Kindly provide the recorded test outcome for the following compound: "COc1cc(OC)c(/C=C/S(=O)(=O)Cc2ccc(OC)c(NC(=O)CCC(=O)NO)c2)c(OC)c1"
inactive

Kindly provide the recorded test outcome for the following compound: "CN(C)CCNC(=O)c1ccc(-c2nc3ccc4[nH]ncc4c3c3c2COCC3)cc1"
active

Kindly provide the recorded test outcome for the following compound: CNc1ncc2cc(-c3ccc(-c4ncccc4F)cc3Cl)c(=O)n(CC3OCC(N)CO3)c2n1 (configuration not stated)
inactive

Kindly provide the recorded test outcome for the following compound: "O=C1[C@H]2Cc3c([nH]c4ccccc34)[C@@H](c3ccc(Cl)cc3)N2C(=O)CN1C1CCN(Cc2ccccc2)CC1"
inactive

###

Test system: U251 CNS
Assay: NCI-60 one-dose screen, 48 h (100 = growth as untreated, 0 = no growth, -100 = all killed)
Conditions: 10 µM unless noted
About 83,000 compounds went through this panel and 20% of them were active in at least one assay; those are over-represented in the sample as a whole.
Exercise: for every item that follows, state its recorded growth.
Entry rule: numbers only, all in %.

Value lookup for growth; key = "Cc1ccc(S(=O)(=O)N(CC[C@@H]2C[C@H]2c2cc3ccccc3o2)S(=O)(=O)c2ccc(C)cc2)cc1"
92.5

Value lookup for growth; key = "CCOC(=O)c1c(Nc2ccccc2)nn2c(-c3ccc(OC)cc3)ccnc12"
89.2

Value lookup for growth; key = "O=S(=O)(NCCCNc1nccc(-n2cnc3ccccc32)n1)c1ccc(C(F)(F)F)cc1"
90.8

###

System: SF-539 CNS
Test: NCI-60 one-dose screen, 48 h
Conditions: 10 µM unless noted
The panel holds about 83,000 compounds, 20% with a hit somewhere; the sample as a whole holds those more often. The source made the active and inactive calls. Rule for the calls: active = growth percent below 10; inactive = the rest.
Pick one and only one: active, inactive

Kindly provide the recorded test outcome for the following compound: "C#Cc1nc(C(C)=O)cs1"
inactive

Kindly provide the recorded test outcome for the following compound: "COc1cc(OC)cc(C(=O)Nc2sc3c(c2C(N)=O)CCC(=O)C3)c1"
inactive

Kindly provide the recorded test outcome for the following compound: "COc1cc(-c2nn(C(C)(C)C)cc2-c2ccnc(NCCCNS(=O)(=O)c3ccc(C)cc3)n2)ccc1Cl"
inactive

Kindly provide the recorded test outcome for the following compound: "O=C(O)c1ccc(-n2cc(CNc3cc(F)c(F)c(F)c3)c(-c3cccc(F)c3)n2)cc1"
inactive

Kindly provide the recorded test outcome for the following compound: "C#C[C@]1(O)CC[C@H]2[C@@H]3CC=C4c5sc(-c6cccc(O)c6)nc5CC[C@]4(C)[C@H]3CC[C@@]21C"
active

Kindly provide the recorded test outcome for the following compound: CC1=CC(=O)C2=C(C)CC(OC(=O)CCc3ccccc3)[C@@H]3[C@H](OC(=O)[C@@H]3C)[C@@H]12 (stereo partly specified)
inactive

Kindly provide the recorded test outcome for the following compound: "O=C(/C=C/c1ccc(F)cc1)c1ccc(O)cc1"
inactive

Kindly provide the recorded test outcome for the following compound: "c1cc(-c2nc3ccc4[nH]ncc4c3c3c2CCCC3)[nH]n1"
inactive

Kindly provide the recorded test outcome for the following compound: COc1cc2nc(Cl)nc(Nc3cccc(C4=Nc5c(N)nc(N)nc5NC(c5ccccc5)C4)c3)c2cc1OC (stereo unspecified)
inactive

Kindly provide the recorded test outcome for the following compound: Cc1ccc2sc3c(c2c1)OC(N)=C(C#N)C3c1ccc(Cl)cc1 (stereo unspecified)
inactive

Kindly provide the recorded test outcome for the following compound: "CN(C)CCNC(=O)c1ccc(-c2nc3ccc4[nH]ncc4c3c3c2CCC3)cc1"
active

Kindly provide the recorded test outcome for the following compound: "CNC(=O)c1c(NC(=O)c2ccccc2C(F)(F)F)sc2c1CCC(=O)C2"
inactive

Kindly provide the recorded test outcome for the following compound: "C#C[C@]1(O)CC[C@H]2[C@@H]3CC=C4c5sc(-c6ccc7c(c6)OCO7)nc5CC[C@]4(C)[C@H]3CC[C@@]21C"
active

Kindly provide the recorded test outcome for the following compound: CC(C)(C)c1ccc(C(=O)Nc2sc3c(c2C(N)=O)CCC(O)C3)cc1 (stereo unspecified)
inactive

Kindly provide the recorded test outcome for the following compound: "CN1CCN(Cc2ccc(NC(=O)c3cncc(C#Cc4cnc5ccc(OCC6(C)COC6)nn45)c3)cc2C(F)(F)F)CC1"
active

Kindly provide the recorded test outcome for the following compound: "COc1cc(-c2ccc3ncnc(NCc4ccccc4)c3c2)cnc1OC"
inactive

Kindly provide the recorded test outcome for the following compound: "Nc1ncc(-c2ccc(NS(=O)(=O)c3ccc(Cl)c(Cl)c3)cc2)[nH]1"
inactive

Kindly provide the recorded test outcome for the following compound: "CCNC(=O)Oc1ccc(/C(=C(/C)c2ccccc2)c2ccc(OCCN3CCCCCC3)cc2)cc1"
active

Kindly provide the recorded test outcome for the following compound: "COc1ccc(/C=C(\C#N)C(=O)N2c3ccccc3Sc3ccc(SC)cc32)cc1F"
inactive

Kindly provide the recorded test outcome for the following compound: COC(=O)c1[nH]nc2c1C1(C(=O)c3cccc4cccc1c34)C(C#N)=C(N)O2 (stereo unspecified)
inactive

Kindly provide the recorded test outcome for the following compound: "CCOc1ccc(C(=O)Nc2ncc(Cc3ccc(F)cc3)s2)cc1"
active
